System: LOX IMVI
Test: NCI60 one-dose screen (10 μM), Melanoma
Format: cell-based, human
Conditions: Homo sapiens; 10 μM; LOX IMVI, Melanoma; read-out: Growth percent rate
resultType: activity at 10 µM (%)
Numbers only, in %.

compound	unitsOfMeasure	activity at 10 µM
CCC12C=CCN3CCC4(c5ccc(OC)cc5N(C)C4C(O)(C(=O)OC)C1OC(=O)CCCN1CCN(C)CC1)C32 (stereo not drawn)	%	84

Go through the list and state activity at 10 µM for each entry.
1. CC[C@]12C=CCN3CC[C@@]4(c5ccc(OC)cc5N(C)[C@H]4[C@@](O)(C(=O)OC)[C@@H]1OC(=O)CCC(=O)N1CCN(Cc4ccc(C(F)(F)F)cc4)CC1)[C@@H]32
2. CCC12C=CCN3CCC4(c5cc(NC(=O)CN6CCN(C(c7ccc(F)cc7)c7ccc(F)cc7)CC6)c(OC)cc5N(C)C4C(O)(C(=O)OC)C1OC(C)=O)C32 (stereo not drawn)
3. CCC12C=CCN3CCC4(c5ccc(OC)cc5N(C)C4C(O)(C(=O)OC)C1OC(=O)CCCBr)C32 (stereo not drawn)
4. CCC12C=CCN3CCC4(c5cc(NC(=O)CCl)c(OC)cc5N(C)C4C(O)(C(=O)OC)C1OC(C)=O)C32 (stereo not drawn)
5. CC[C@]12C=CCN3CC[C@@]4(c5ccc(OC)cc5N(C)[C@H]4[C@@](O)(C(=O)OC)[C@@H]1OC(=O)CCCN1CCN(C(=O)c4ccco4)CC1)[C@@H]32

OUTPUT:
-7.07
-61
88.6
11.5
96.6

Attribution: paper PMC11277489
